Origin of values: PubChem BioAssay

- PROTOCOL SUMMARY: DUSP6 inhibitors restoring Erk phosphorylation by chemical complementation, primary imaging in DUSP6-transfected HeLa (AID 609)
- PROTOCOL CONDITIONS: HeLa MKP-3 transfected, phospho-Erk imaging KS statistic; measured here: cell density z-score; at 10 µM; cells stimulated with TPA for 15 min
READOUT NAME: z-score
One number for each entry.

In: Complete the entry with z-score for Clc1ccccc1CSc1nnc(-c2ccco2)c(-c2ccco2)n1
Out: -1.8

In: Complete the entry with z-score for COc1ccc(/C=C/C(=O)Nc2ccccc2C(=O)O)cc1OC
Out: 0.437

In: Complete the entry with z-score for CC1(C)Cc2c(c(-c3ccccc3)nc3[nH][nH]c(=O)c23)CO1
Out: 0.742

Would you mind giving z-score for every molecule in the list below?
1. Cc1cc(COc2ccccc2OCCN2CCN(C)CC2)no1
2. COc1ccc(C=NCCCN2CCOCC2)cc1
3. CC1(C)Cc2c(C#N)c(NCc3ccco3)nc(-c3ccco3)c2CO1

Out:
[0.378, -1.79, 0.978]

* * *

For each record, write down the corresponding z-score.
- PROTOCOL SUMMARY: DUSP6 inhibitors restoring Erk phosphorylation by chemical complementation, primary imaging in DUSP6-transfected HeLa (AID 609)
- PROTOCOL CONDITIONS: HeLa MKP-3 transfected, phospho-Erk imaging KS statistic; measured here: nuclear pErk red intensity z-score; at 10 µM; stronger effect = higher value; cells stimulated with TPA for 15 min
Give bare numbers.

Some solved cases for reference:
In: Complete the entry with z-score for c1ccc(OCc2nn3c(-c4ccco4)nnc3s2)cc1
Out: -0.302

In: Complete the entry with z-score for Cc1cccc(OCC(=O)N2CCC(N3CCOCC3)CC2)c1
Out: 0.299

In: Complete the entry with z-score for CN(C)CCC=C1c2ccccc2CCc2ccccc21
Out: 0.732

In: Complete the entry with z-score for O=S(CCc1ccncc1)Cc1ccccc1 (stereo unspecified)
Out: 2.01

Would you mind giving z-score for every compound in the list below?
1. OCCN1CCN(CCCN2c3ccccc3Sc3ccc(Cl)cc32)CC1
2. C[N+]12CCC(CC1)C(OC(=O)C(O)(c1ccccc1)c1ccccc1)C2 (stereo unspecified)

Out:
1: 2.66; 2: 0.334

* * *

For each record, write down the corresponding inhibition.
- PROTOCOL SUMMARY: inhibitors of E-selectin induction by TNFa, primary screen, imaging, HUVEC, immunofluorescence, MLSMR starter and 10KST1 sets (AID 487);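 also: signal is fraction of cell area covered by stained E-selectin grains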
- PROTOCOL CONDITIONS: HUVEC TNFalpha-induced E-selectin immunofluorescence imaging, at 2 µM; stronger effect = higher value
Give bare numbers, in %.

In: Complete the entry with inhibition for Nc1[nH]nc2nc(NCc3ccccc3)c3c(c12)CCN(Cc1ccccc1)C3
Out: 20

In: Complete the entry with inhibition for CC(=O)C(=[N+]=[N-])C(=O)NCc1ccccc1
Out: -71.5

Would you mind giving inhibition for every compound in the list below?
1. Nc1nc(F)nc2c1ncn2[C@@H]1O[C@H](CO)[C@@H](O)[C@@H]1O
2. Cn1c(OCc2cccnc2)nc2c1c(=O)n(Cc1ccc(Cl)cc1)c(=O)n2C
3. CCCC(=O)O[C@]1(C(=O)COC(C)=O)CC[C@H]2[C@@H]3C[C@H](F)C4=CC(=O)C=C[C@]4(C)[C@@]3(F)[C@@H](O)C[C@@]21C

Out:
1. 5.4
2. 6.1
3. -95.2

Would you mind giving inhibition for every compound in the list below?
1. COc1ccc(-c2nnc3sc(-c4c(OC)cccc4OC)nn23)cc1
2. OCCNc1nc(-c2ccccc2)c2ccccc2n1
3. CC(=O)OC12CC3CC(C1)C(=NO)C(C3)C2
4. CCN1CCc2c(C#N)c(N3CCOCC3)nc(NCCO)c2C1
5. Cc1ccc(NC(=O)CSC2=C(C#N)C(c3ccc4c(c3)OCO4)CC(=O)N2)cc1C (configuration not stated)
6. Cc1cc(C)n2c3c(c(C#N)c2n1)CC(C)(C)OC3
7. CC(=NC1CCCC1)c1c(C)[nH]n(-c2nc3ccccc3s2)c1=O
8. COCCCC/C(=N\OCCN)c1ccc(C(F)(F)F)cc1

Out:
-176
-153
-145
-122
-11.7
55.6
54.6
-121

Would you mind giving inhibition for every compound in the list below?
1. COc1cccc(-c2nn3c(-c4ccco4)nnc3s2)c1
2. Cc1nc2c(c(=O)n1CC1CCCO1)c1nc3ccccc3nc1n2CC(C)C (configuration not stated)
3. COc1ccc(Cn2c(CCCO)nc3ccccc32)cc1OC
4. CC1(C)Cc2c(C#N)c(NCCc3ccccc3)nc(-c3ccco3)c2CO1

Out:
1: 16.8; 2: -42.3; 3: -84; 4: -33.8

Would you mind giving inhibition for every compound in the list below?
1. COCc1cc(=O)[nH]c(Nc2nc3ccccc3o2)n1
2. Brc1c(NC2=NCCN2)ccc2nccnc12
3. C[C@]12C=CC(=O)C=C1CC[C@@H]1[C@@H]2[C@@H](O)C[C@@]2(C)[C@H]1CC[C@]2(O)C(=O)COC(=O)CCC(=O)O
4. O=c1oc2c3c4c(cc2c(C(F)(F)F)c1CCN1CCOCC1)CCCN4CCC3
5. CCN(CC)C(=O)CSC1=C(C#N)C(c2ccco2)C(C(=O)OCCOC)=C(C)N1 (configuration not stated)

Out:
1: -16; 2: -58.7; 3: -27.3; 4: -59.8; 5: -184
